Target: RXRγ (Mus musculus)
Construct: expressed in transfected cells
Sequence (P28705 1-463): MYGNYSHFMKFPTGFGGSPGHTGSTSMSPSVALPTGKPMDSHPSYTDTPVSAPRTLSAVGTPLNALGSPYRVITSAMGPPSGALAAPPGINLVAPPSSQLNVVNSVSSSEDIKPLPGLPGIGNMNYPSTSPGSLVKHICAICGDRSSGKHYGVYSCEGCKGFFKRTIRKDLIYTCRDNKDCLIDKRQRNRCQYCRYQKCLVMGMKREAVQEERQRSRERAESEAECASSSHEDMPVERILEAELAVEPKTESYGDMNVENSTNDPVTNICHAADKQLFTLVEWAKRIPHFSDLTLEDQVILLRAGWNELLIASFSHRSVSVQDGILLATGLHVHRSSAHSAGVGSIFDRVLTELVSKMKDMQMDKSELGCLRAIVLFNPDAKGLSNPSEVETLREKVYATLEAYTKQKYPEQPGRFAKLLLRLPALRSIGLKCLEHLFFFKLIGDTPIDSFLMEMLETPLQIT
Experiment: holoreceptor transactivation assay, RXRγ
Type: cell-based
Conditions: relative to 10^-6 M cyclopropyl penta-2,4-dienoic acid reference, read-out: % efficacy, RXRγ transactivation
For each record, write down the corresponding Emax.
Provide only the numeric value, understood in %.

Find the recorded Emax belonging to CC(C)CN(c1ccc(C(=O)O)cc1)c1ccc2c(c1)N(C(C)C)CCC2(C)C and report it.
112

Field entry: CC(C)N1CCC(C)(C)c2cc(N(C)c3ccc(C(=O)O)cc3)ccc21
50

Now try Cc1cc2c(cc1N(C)c1ccc(C(=O)O)cc1)N(C(C)C)CCC2(C)C .
104

Do the same for Cc1cc2c(cc1N(C)c1ccc(C(=O)O)cc1)C(C)(C)CCN2C(C)C please
100

----------
Hi there, I'd appreciate the recorded Ki for every entry that follows.
Target protein (sequence): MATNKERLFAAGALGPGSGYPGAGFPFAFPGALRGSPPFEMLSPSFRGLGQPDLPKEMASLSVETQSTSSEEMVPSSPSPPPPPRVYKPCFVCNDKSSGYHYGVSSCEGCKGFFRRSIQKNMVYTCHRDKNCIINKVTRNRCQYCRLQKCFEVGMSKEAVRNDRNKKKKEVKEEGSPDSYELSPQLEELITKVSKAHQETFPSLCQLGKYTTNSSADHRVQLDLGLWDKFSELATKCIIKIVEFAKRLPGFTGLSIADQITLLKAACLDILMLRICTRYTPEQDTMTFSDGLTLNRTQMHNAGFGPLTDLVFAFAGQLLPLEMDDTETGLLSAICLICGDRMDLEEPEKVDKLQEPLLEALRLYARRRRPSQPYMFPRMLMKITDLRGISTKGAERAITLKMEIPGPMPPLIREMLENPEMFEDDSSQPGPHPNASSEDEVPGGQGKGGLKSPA
Write the number in µM without appending the unit.

Need Ki of Cc1cc2c(cc1N(C)c1ccc(C(=O)O)cc1)C(C)(C)CCN2C(C)C [Compound 22] , thanks.
1.7

Please do the same for CCCN(c1ccc(C(=O)O)cc1)c1cc2c(cc1C)C(C)(C)CCN2C(C)C [Compound 53] as well.
17

CCN(c1ccc(C(=O)O)cc1)c1ccc2c(c1)C(C)(C)CCN2C(C)C [Compound 12] , same question.
1

Also need CC(C)N1CCC(C)(C)c2ccc(N(CC3CC3)c3ccc(C(=O)O)cc3)cc21 [Compound 40] , thanks.
3.5

Could you do the same for CCN(c1ccc(C(=O)O)cc1)c1ccc2c(c1)N(C(C)C)CCC2(C)C [Compound 38] , please?
6.3
